- target: VEGF 1* (synthetic) (UniProt P08047)
- protocol-details: EMSA
experimental-readout: Kd
Answer shape: numeric part, then the unit.

Enquiry: Answer with the recorded Kd of GGGGAGGVK (double strand) [VEGF 1 / 1* / 1A target] only.
Return: 3 nM

----------
- System: HP38 4A (synthetic)
- Sequence (chain, as listed by the source): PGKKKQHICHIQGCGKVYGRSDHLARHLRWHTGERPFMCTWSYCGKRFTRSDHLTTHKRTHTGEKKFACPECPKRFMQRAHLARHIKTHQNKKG
- protocol-details: EMSA
experimental-readout: pKd
Give bare numbers, as −log10 of the molar value.

Enquiry: Read the entry GGDTGGGGG (double strand) [HP38 4A target] and write its reported pKd.
Return: 9.13

----------
- Test system: PDF 5A (VZ+590) (synthetic)
- Sequence (chain, as listed by the source): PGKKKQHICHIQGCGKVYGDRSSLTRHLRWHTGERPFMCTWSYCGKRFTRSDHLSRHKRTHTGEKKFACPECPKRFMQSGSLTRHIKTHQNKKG
- protocol-details: EMSA
experimental-readout: Kd (nM)
Numbers only, in nM.

Enquiry: Name the value of Kd reported for GYAGGGGCC (double strand) [PDF 5A target] when tested on PDF 5A (VZ+590) (synthetic).
Return: 0.23

----------
- target: HBV 3 (synthetic)
- protocol-details: EMSA
experimental-readout: pKd
Give bare numbers, as −log10 of the molar value.

Enquiry: Look up and report measured pKd (HBV 3 (synthetic)) for the following sequence: GGGGGAGGW (double strand) [HBV 3 target]
Return: 7.52

----------
- System: EP10A (synthetic)
- Sequence (chain, as listed by the source): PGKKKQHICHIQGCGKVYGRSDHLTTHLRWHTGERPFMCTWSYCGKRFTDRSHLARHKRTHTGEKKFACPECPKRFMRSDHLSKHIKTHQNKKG
- protocol-details: EMSA
experimental-readout: pKd
Give bare numbers, as −log10 of the molar value.

Enquiry: Give pKd only, for KGGGGCTGG (double strand) [EP10A target] , using EP10A (synthetic) data.
Return: 9.46

----------
- Tested on: GATA82Z678 (synthetic)
- Sequence (chain, as listed by the source): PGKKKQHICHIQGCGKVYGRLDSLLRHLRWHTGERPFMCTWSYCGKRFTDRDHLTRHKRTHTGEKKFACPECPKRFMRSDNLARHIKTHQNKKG
- protocol-details: EMSA
experimental-readout: Kd (nM)
Numbers only, in nM.

Enquiry: Given the sequence GAGKGKGYG (double strand) [GATA82Z678 target] , write its reported Kd.
Return: 1.8

----------
- Test system: mVZ+57 (VG10A/8A, MVG) (synthetic)
- protocol-details: EMSA
- condition: text printed as Kds of 0.031 nM for the designed ZFPs; 100 mM KCl, 1 mM MgCl2, Zn
pKd: −log10 of the molar value.
experimental-readout: pKd

Enquiry: Give the value of pKd reported for the following: TGAGCGGCGGCAGCGGAGC (double strand) [mVZ+57 target]
Return: > 10.51

----------
- target: VEGF 1A (synthetic) (UniProt P08047)
- protocol-details: EMSA
experimental-readout: Kd
A complete answer gives the number and then names the unit.

Enquiry: # return Kd of GGGGAGGVK (double strand) [VEGF 1 / 1* / 1A target] (system: VEGF 1A (synthetic) (UniProt P08047))
Return: 0.2 nM

Taken from patent US20030021776.
